System: KM12 colon
experiment: NCI-60 one-dose screen, 48 h
conditions: 10 µM
The panel holds about 83,000 compounds, 20% with a hit somewhere; the sample as a whole holds those more often. Active and inactive are the calls of the source. The calls were made as follows: active = growth percent below 10; inactive = the rest.
Output constraint: value belongs to active, inactive

Check out these entries, answers already filled in.
{"columns": ["molecule", "tested_system", "assigned_label"],
 "data": [
  ["Cc1ccc(-n2nnnc2N)c(C)c1", "KM12 colon", "inactive"],
  ["COc1cc(/C=C/c2cc(/C=C/c3ccc(O)c(OC)c3)n(C(=O)Nc3ccc(C)cc3)n2)ccc1O", "KM12 colon", "active"],
  ["COc1ccc2nc3cc(Cl)ccc3c(NCCCNCCO)c2c1", "KM12 colon", "active"]
]}

Lab note: next molecule to report on.
INPUT: Recorded test call requested for CCOS(=O)(=O)c1c(C(C)C)cc(C(C)C)cc1C(C)C
OUTPUT: inactive

====

Tested on: UACC-257 melanoma
experiment: NCI-60 one-dose screen, 48 h (100 = growth as untreated, 0 = no growth, -100 = all killed)
conditions: 10 µM
The panel holds about 83,000 compounds, 20% with a hit somewhere; the sample as a whole holds those more often.
Simple rule here: growth less than 90% is 1 (yes), otherwise 0 (no).

{"columns": ["compound", "assigned_label"],
 "data": [
  ["Cc1c(Cl)cccc1NC(=O)CN1CCOCC1", "0 (no)"],
  ["CS(=O)(=O)c1nccc(-c2c(-c3cccc(OCCc4ccccc4)c3)nc3sccn23)n1", "0 (no)"],
  ["CS(=O)(=O)c1nccc(-c2c(-c3ccc(OCCc4ccccc4)cc3)nc3sccn23)n1", "0 (no)"],
  ["COc1ccc(C2CC(c3cccs3)=NN2c2ccc(S(N)(=O)=O)cc2)cc1 (configuration not stated)", "1 (yes)"]
]}

INPUT: # TODO verify growth < 90% strictly for this compound: CC(=O)O[C@@]12CO[C@@H]1C[C@H](O)[C@@]1(C)C(=O)[C@H](O)C3=C(C)[C@@H](OC(=O)[C@H](O)[C@@H](NC(=O)OC(C)(C)C)c4ccccc4)C[C@@](O)([C@@H](OC(=O)c4ccccc4)C12)C3(C)C (some centres not stated)
OUTPUT: 1 (yes)

INPUT: Input O=C(Nc1nc(-c2ccccc2)nc2c1sc(=S)n2-c1ccccc1)C(F)(F)F ; condition: growth strictly below 90%. Does it hold?
OUTPUT: 1 (yes)

INPUT: Regarding OCC1OC(n2cnc3c(NCc4ccco4)ncnc32)C(O)C1O (configuration not stated) , kindly confirm whether its growth is beneath 90%.
OUTPUT: 1 (yes)

INPUT: Hello, I'm reviewing records and need to know if growth of CS(=O)(=O)c1nccc(-c2c(-c3cccc(OCc4ccccc4)c3)nc3sccn23)n1 is below 90%. Could you check?
OUTPUT: 1 (yes)

INPUT: In plain terms, does C[C@@H](O)[C@H]1C(=O)N2C(C(=O)O)=C(SCCN=CN)C[C@H]12 come in under 90% for growth?
OUTPUT: 1 (yes)

INPUT: Does the reported growth of CCOC(=O)c1cc(C(=O)c2ccc(OC)c(OC)c2)n2c1ccc1ccc3cccnc3c12 stay below 90%?
OUTPUT: 1 (yes)

====

Listed next: entries and their corresponding growth.
Tested on: SK-MEL-2 melanoma
experiment: NCI-60 one-dose screen, 48 h (100 = growth as untreated, 0 = no growth, -100 = all killed)
conditions: 10 µM
Compounds without any hit were thinned out: in the full panel of roughly 83,000, 20% have a hit.
// note: answer is a bare numeric in %

{"columns": ["compound", "unit_symbol", "endpoint_result"],
 "data": [
  ["COc1ccc2c(c1)C(CC(=O)NN)CCC2 (stereo unspecified)", "%", 108]
]}

Tested on SK-MEL-2 melanoma: COc1ccc(Cl)cc1Nc1nc(C(F)(F)F)ccc1C(=O)N/N=C/c1ccc(Cl)cc1 . Observed growth: 26.4

Observed growth on SK-MEL-2 melanoma, entry CCNc1nc(C(F)(F)F)nc2c1sc(=S)n2-c1ccccc1 , equals 88.1

growth value, target or system SK-MEL-2 melanoma, for Cc1ccc(C2=NN(c3ccc(S(C)(=O)=O)cc3)C(=O)CC2)cc1 : 6.35

Record Cc1c2cnccc2c(C)c2c1oc1ccccc12 / SK-MEL-2 melanoma, growth recorded as 112

I looked up CCN(CC)CCNc1ccc(C)c2sc3cc(Cl)ccc3c(=O)c12 and its growth for SK-MEL-2 melanoma was 36.5

====

Tested on: M14 melanoma
experiment: NCI-60 one-dose screen, 48 h (100 = growth as untreated, 0 = no growth, -100 = all killed)
conditions: 10 µM
About 83,000 compounds went through this panel and 20% of them were active in at least one assay; those are over-represented in the sample as a whole.
measure: growth (%)
I only need the number, in %, no unit after it.

Here is how some compounds turned out for growth.
{"columns": ["compound", "growth [%]"],
 "data": [
  ["Cc1ccc(/C=C/C(=O)C(=O)/C=C/c2ccc(C)cc2)cc1", 95.2],
  ["CC(=O)O[C@@]12CO[C@@H]1C[C@H](O)[C@@]1(C)C(=O)[C@H](O)C3=C(C)[C@@H](OC(=O)[C@H](O)[C@@H](NC(=O)OC(C)(C)C)c4ccccc4)C[C@@](O)([C@@H](OC(=O)c4ccccc4)C12)C3(C)C (stereo partly drawn)", 36],
  ["Cc1ccc(N=Nc2ccccc2)cc1", 90.9],
  ["CCCCN1C(=O)CC(SC2CC(=O)N(CCCC)C2=O)C1=O (stereo not drawn)", 113]
]}

Now for another entry.
Sure, the documented growth for O=C(/C=C/C=C/c1c(C2CC2)nc2ccccc2c1-c1ccc(F)cc1)c1cccs1 is 3.19

====

Tested on: NCI/ADR-RES ovarian
experiment: NCI-60 one-dose screen, 48 h (100 = growth as untreated, 0 = no growth, -100 = all killed)
conditions: 10 µM
The panel holds about 83,000 compounds, 20% with a hit somewhere; the sample as a whole holds those more often.
We label by threshold. Values of growth strictly beneath 50% are TRUE. Values of 50% and up are FALSE.

Completed entries (count: 6):
{"columns": ["compound", "assigned_label"],
 "data": [
  ["COc1cccc(CNc2cccc3cn[nH]c23)c1O", "FALSE"],
  ["CC(=O)Nc1ccc(CC[C@H]2CCC/C=C/[C@@H]3C[C@H](O)C[C@H]3[C@H](O)/C=C/C(=O)O2)cc1", "TRUE"],
  ["COc1cc(-c2nn(-c3ccc(NC(=O)NCCNS(=O)(=O)c4ccc(F)cc4)cc3)cc2-c2ccncc2)ccc1Cl", "FALSE"],
  ["CN(C)c1ccc(/C=N/NC(=O)c2cccc3ccccc23)c(Cl)c1", "TRUE"],
  ["COc1cc(-c2nn(-c3cccc(NC(=O)NCCNS(=O)(=O)c4ccc(Cl)cc4)c3)cc2-c2ccncc2)ccc1Cl", "FALSE"],
  ["CC(C)Cc1ccc([C@H](C)C(=O)O)cc1", "FALSE"]
]}

INPUT: Strictly below 50%: is that where growth of COc1cc(-c2nn(-c3cccc(NC(=O)NCCNC(=O)c4cccc(C(F)(F)F)c4)c3)cc2-c2ccncc2)ccc1Cl sits?
OUTPUT: FALSE

====

Test system: HCT-116 colon
experiment: NCI-60 one-dose screen, 48 h (100 = growth as untreated, 0 = no growth, -100 = all killed)
conditions: 10 µM
This is part of a sample that, as a whole, favours compounds with a hit. Of some 83,000 tested, about 20% had one in any assay.
# Lookup of reported growth keyed by entry
Field: numeric (%). Do not append units.

Answered examples (3):
{"columns": ["compound", "unit_symbol", "endpoint_result"],
 "data": [
  ["CCN1CC(CCN2CCOCC2)C(C(c2ccccc2)c2ccccc2)C1=O (centres undefined)", "%", 114],
  ["O=C(CSc1nccc(Nc2cccc3ccccc23)n1)c1ccc(Cl)cc1", "%", 67.5],
  ["COc1cc(C2CC(c3cc(Cl)c(C)cc3O)=NN2c2ccc(S(N)(=O)=O)cc2)cc(OC)c1OC (centres undefined)", "%", -14.3]
]}

growth reported for this compound COc1cc2cc(Oc3ccc(NC(=O)Nc4ccc(Cl)c(C(F)(F)F)c4)cc3)c(C)nc2cc1OC : -87.3

Notebook: CSc1ccc(-c2cc(-c3ccc(NC(=O)CCCN4CCCC4)cc3)nc(-c3ccc(NC(=O)CCCN4CCCC4)cc3)c2)cc1 , growth read as 80.4

growth reported for this compound Cc1cc(O)ccc1C1=NN(c2ccc(S(C)(=O)=O)cc2)C(=O)CC1 : 52.4

GET /value?item= CC(C)(C)c1nn(-c2ccccc2)c2c1CC1(CN2Cc2ccc(Cl)cc2)C(=O)c2ccccc2C1=O &field=growth returns 52.6

# growth of COc1ccc(Cc2cnc(N)nc2N)cc1OC = 99.8

Entry CC1OC2CC(=O)OC2C2=C1C(=O)c1c(O)c3c(c(O)c1C2=O)C1CC(O)C3(O)C(C)O1 (centres undefined) ; growth = -91.5
